Data credit: patent US8546377B2

Target: 5HT2C receptors (Homo sapiens, UniProt P28335)
Experiment: Human 5-HT2C functional assay in CHO-K1 cells (calcium flux, FLIPR)
Format: cell-based
Design: expressed in transfected cells; host or cells: CHO-K1 cells
Settings: CHO-K1 cells over-expressing 5HT2C, calcium flux; read-out: EC50 (μM), 5-HT2c Agonist Activity
Listed here: items and their measured EC50.

- MOLECULE: "O=C1CC2CNCCN2c2cc(OCc3ccccc3F)ccc2N1 (stereo not drawn)"
  MEASURED TARGET: "5HT2C receptors (Homo sapiens, UniProt P28335)"
  EC50: "0.0384 µM"
- MOLECULE: "COc1ccccc1-c1ccc2c(c1)N1CCNC[C@@H]1CCO2"
  MEASURED TARGET: "5HT2C receptors (Homo sapiens, UniProt P28335)"
  EC50: "0.03 µM"
- MOLECULE: "CC(O)c1cccc(-c2cccc3c2OCC[C@H]2CNCCN32)c1 (stereo partly drawn)"
  MEASURED TARGET: "5HT2C receptors (Homo sapiens, UniProt P28335)"
  EC50: "0.003 µM"
- MOLECULE: "O=C1CC2CNCCN2c2cc(/C=C/c3cc(F)cc(F)c3)ccc2N1 (stereo not drawn)"
  MEASURED TARGET: "5HT2C receptors (Homo sapiens, UniProt P28335)"
  EC50: "0.02 µM"
- MOLECULE: "C[C@@H](Cc1ccccc1)Oc1ccc2c(c1)N1CCNCC1CC(=O)N2 (stereo partly drawn)"
  MEASURED TARGET: "5HT2C receptors (Homo sapiens, UniProt P28335)"
  EC50: "0.0797 µM"
- MOLECULE: "O=C1C[C@H]2CNCCN2c2cc(-c3ccccc3F)ccc2N1"
  MEASURED TARGET: "5HT2C receptors (Homo sapiens, UniProt P28335)"
  EC50: "0.008 µM"
- MOLECULE: "O=C1CC2CNCCN2c2cc(CCc3ccccc3F)ccc2N1 (stereo not drawn)"
  MEASURED TARGET: "5HT2C receptors (Homo sapiens, UniProt P28335)"
  EC50: "0.002 µM"
- MOLECULE: "O=C1CC2CNCCN2c2cc(CCc3cccc(F)c3)ccc2N1 (stereo not drawn)"
  MEASURED TARGET: "5HT2C receptors (Homo sapiens, UniProt P28335)"
  EC50: "0.006 µM"
- MOLECULE: "CC(C)c1cccc(-c2ccc3c(c2)N2CCNCC2CC(=O)N3)c1 (stereo not drawn)"
  MEASURED TARGET: "5HT2C receptors (Homo sapiens, UniProt P28335)"
  EC50: "0.02 µM"

====

Quick list: EC50 per entry.
Molecular target: 5HT2C receptors (Homo sapiens, UniProt P28335)
Sequence (P28335 33-458): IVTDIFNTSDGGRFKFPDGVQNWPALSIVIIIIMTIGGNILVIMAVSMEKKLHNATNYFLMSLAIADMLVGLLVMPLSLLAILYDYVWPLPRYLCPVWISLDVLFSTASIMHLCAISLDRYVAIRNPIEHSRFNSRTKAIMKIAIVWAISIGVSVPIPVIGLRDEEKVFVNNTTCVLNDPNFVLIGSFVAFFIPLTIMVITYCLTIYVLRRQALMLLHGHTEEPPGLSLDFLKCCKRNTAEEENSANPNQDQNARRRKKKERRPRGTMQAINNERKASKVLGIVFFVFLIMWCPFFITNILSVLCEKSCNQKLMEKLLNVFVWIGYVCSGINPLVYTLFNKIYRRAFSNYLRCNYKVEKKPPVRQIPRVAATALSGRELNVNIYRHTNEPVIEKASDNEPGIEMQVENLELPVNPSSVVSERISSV
Test: Human 5-HT2C functional assay in 1321N1 cells (intracellular calcium, FLIPR)
Type: cell-based
Design: expressed in transfected cells; host or cells: 1321N1 cells
Details: 1321N1 cells stably transfected, maximum calcium response; read-out: EC50 (μM), 5-HT2c Agonist Activity
MEASURED METRIC: EC50 (µM)

- MOLECULE: "O=C1CC2CNCCN2c2cc(F)ccc2N1 (stereo not shown) [Example 35]"
  RESULT OPERATOR: "="
  ASSAY RESULT: 0.052
- MOLECULE: "O=C1CC2CNCCN2c2cc(/C=C/c3ccc(F)cc3F)ccc2N1 (stereo not shown) [Example 28]"
  RESULT OPERATOR: "="
  ASSAY RESULT: 0.131
- MOLECULE: "O=C1CC2CNCCN2c2cc(/C=C/c3ccc(Cl)cc3)ccc2N1 (stereo not shown) [Example 27]"
  RESULT OPERATOR: "="
  ASSAY RESULT: 0.183
- MOLECULE: "O=C1CC2CNCCN2c2ccc(F)cc2N1 (stereo not shown) [Example 34]"
  RESULT OPERATOR: "="
  ASSAY RESULT: 0.0893
- MOLECULE: "O=C1NCC2CN(Cc3ccccc3)CCN2c2ccc(NS(=O)(=O)c3ccccc3)cc21 (stereo not shown) [Example 47]"
  RESULT OPERATOR: ">"
  ASSAY RESULT: 10
- MOLECULE: "O=C1CC2CNCCN2c2cc(-c3cccc(Cl)c3)ccc2N1 (stereo not shown) [Example 7]"
  RESULT OPERATOR: "="
  ASSAY RESULT: 0.0279
- MOLECULE: "COc1ccc2c(c1)N1CCNC[C@@H]1CC(=O)N2 [Example 43]"
  RESULT OPERATOR: "="
  ASSAY RESULT: 0.0138
- MOLECULE: "O=C1CC2CNCCN2c2cc(Br)ccc2N1 (stereo not shown) [Example 4]"
  RESULT OPERATOR: "="
  ASSAY RESULT: 0.0028
- MOLECULE: "Cc1ccc2c(c1)N1CCNCC1CC(=O)N2 (stereo not shown) [Example 10]"
  RESULT OPERATOR: "="
  ASSAY RESULT: 0.003
- MOLECULE: "COc1ccc2c(c1)N1CCNCC1CC(=O)N2 (stereo not shown) [Example 12]"
  RESULT OPERATOR: "="
  ASSAY RESULT: 0.0381
- MOLECULE: "O=C1CC2CNCCN2c2ccc3ccccc3c2N1 (stereo not shown) [Example 39]"
  RESULT OPERATOR: ">"
  ASSAY RESULT: 10
- MOLECULE: "O=C1CC2CNCCN2c2cc(Cl)ccc2N1 (stereo not shown) [Example 3]"
  RESULT OPERATOR: "="
  ASSAY RESULT: 0.0017
- MOLECULE: "O=C1NCC2CNCCN2c2ccccc21 (stereo not shown) [Example 46]"
  RESULT OPERATOR: "="
  ASSAY RESULT: 0.0059
- MOLECULE: "CN1C(=O)CC2CNCCN2c2ccccc21 (stereo not shown) [Example 20]"
  RESULT OPERATOR: "="
  ASSAY RESULT: 0.0759
- MOLECULE: "Clc1ccccc1CN1CCC2CNCCN2c2ccccc21 (stereo not shown) [Example 21]"
  RESULT OPERATOR: "="
  ASSAY RESULT: 0.044
- MOLECULE: "O=C1CC2CNCCN2c2c(Br)cccc2N1 (stereo not shown) [Example 30]"
  RESULT OPERATOR: "="
  ASSAY RESULT: 0.0017

====

Biological target: 5HT2C receptors (Homo sapiens, UniProt P28335)
Sequence (P28335 33-458): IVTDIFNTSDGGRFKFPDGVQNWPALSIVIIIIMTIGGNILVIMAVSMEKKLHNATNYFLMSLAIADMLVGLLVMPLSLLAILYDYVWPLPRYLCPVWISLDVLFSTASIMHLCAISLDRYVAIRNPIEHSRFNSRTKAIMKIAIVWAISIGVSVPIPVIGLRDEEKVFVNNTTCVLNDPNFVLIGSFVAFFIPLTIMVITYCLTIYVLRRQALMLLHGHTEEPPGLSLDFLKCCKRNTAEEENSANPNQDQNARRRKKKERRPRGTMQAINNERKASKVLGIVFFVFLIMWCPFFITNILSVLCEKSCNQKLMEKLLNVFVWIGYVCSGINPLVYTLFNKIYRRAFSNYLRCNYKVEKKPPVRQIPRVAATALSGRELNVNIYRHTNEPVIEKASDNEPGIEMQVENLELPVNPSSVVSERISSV
Assay: Human 5-HT2C functional assay in CHO-K1 cells (calcium flux, FLIPR)
Assay type: cell-based
Set-up: expressed in transfected cells; host or cells: CHO-K1 cells
Lab note - cut at 10 nM for EC50: 1 (yes) if strictly below, 0 (no) if not.

- COMPOUND: "Clc1ccc2c(c1)N1CCNC[C@H]1CCO2 [Example 261]"
  MEASURED TARGET: "5HT2C receptors (Homo sapiens, UniProt P28335)"
  CLASS NAME: "1 (yes)"
- COMPOUND: "Cc1ccc2c(c1)N1CCNC[C@H]1CCO2 [Example 257]"
  MEASURED TARGET: "5HT2C receptors (Homo sapiens, UniProt P28335)"
  CLASS NAME: "1 (yes)"
- COMPOUND: "Fc1cccc2c1OCC[C@@H]1CNCCN21 [Example 270]"
  MEASURED TARGET: "5HT2C receptors (Homo sapiens, UniProt P28335)"
  CLASS NAME: "1 (yes)"
- COMPOUND: "O=C1CC2CNCCN2c2ccc(Cl)cc2N1 (stereo not drawn) [Example 51]"
  MEASURED TARGET: "5HT2C receptors (Homo sapiens, UniProt P28335)"
  CLASS NAME: "0 (no)"
- COMPOUND: "Clc1cccc2c1OCC[C@H]1CNCCN21 [Example 138]"
  MEASURED TARGET: "5HT2C receptors (Homo sapiens, UniProt P28335)"
  CLASS NAME: "1 (yes)"
- COMPOUND: "[2H]c1cc2c(cc1[2H])N1CCNC[C@@H]1CCO2 [Example 267]"
  MEASURED TARGET: "5HT2C receptors (Homo sapiens, UniProt P28335)"
  CLASS NAME: "1 (yes)"
- COMPOUND: "O=C1C[C@H]2CNCCN2c2cccc(Cl)c2N1 [Example 148]"
  MEASURED TARGET: "5HT2C receptors (Homo sapiens, UniProt P28335)"
  CLASS NAME: "1 (yes)"
- COMPOUND: "CN1CCN2c3ccc(Cl)cc3OCC[C@H]2C1 [Example 220]"
  MEASURED TARGET: "5HT2C receptors (Homo sapiens, UniProt P28335)"
  CLASS NAME: "0 (no)"
- COMPOUND: "Cc1ccc2c(c1)OCC[C@@H]1CNCCN21 [Example 259]"
  MEASURED TARGET: "5HT2C receptors (Homo sapiens, UniProt P28335)"
  CLASS NAME: "1 (yes)"
- COMPOUND: "[2H]c1ccc2c(c1)N1CCNC[C@@H]1CCO2 [Example 262]"
  MEASURED TARGET: "5HT2C receptors (Homo sapiens, UniProt P28335)"
  CLASS NAME: "1 (yes)"
- COMPOUND: "Brc1ccc2c(c1)NCC[C@H]1CNCCN21 [Example 54]"
  MEASURED TARGET: "5HT2C receptors (Homo sapiens, UniProt P28335)"
  CLASS NAME: "0 (no)"
- COMPOUND: "Brc1ccc2c(c1)NCCC1CNCCN21 (stereo not drawn) [Example 19]"
  MEASURED TARGET: "5HT2C receptors (Homo sapiens, UniProt P28335)"
  CLASS NAME: "0 (no)"
- COMPOUND: "CN1CCN2c3ccccc3OCC[C@H]2C1 [Example 132]"
  MEASURED TARGET: "5HT2C receptors (Homo sapiens, UniProt P28335)"
  CLASS NAME: "1 (yes)"
